Assign z-score of subpopulation abundance to each entry below.
- Test system: Saccharomyces cerevisiae BY4741 SeMeCo community
- test: z-score of subpopulation abundance vs DMSO median, subpopulation auxotrophic for HU; higher = larger share of this subpopulation than in DMSO controls
- condition parameters: 10 µM; 24 h; SM minimal medium; subpopulation (auxotrophy): HU
Counter-ions that a name gives are not always drawn.
One number for each entry.

CCN(CC)CCOc1ccc(C(=C(Cl)c2ccccc2)c2ccccc2)cc1 [Clomifene citrate]: 1.86
Nc1ccc(S(=O)(=O)Nc2nccs2)cc1 [Sulfathiazole]: -0.39
OC[C@H]1O[C@H](OCC2O[C@@H](O)[C@H](O)[C@@H](O)[C@@H]2O)[C@H](O)[C@@H](O)[C@H]1O (stereo partly drawn) [Melibiose]: 0.74

For every listed record, write down its z-score of subpopulation abundance.
1. CN[C@H]1CC[C@@H](c2ccc(Cl)c(Cl)c2)c2ccccc21 [Sertraline HCl]
2. CN(C)CCC=C1c2ccccc2CCc2ccccc21 [Amitriptyline HCl]
3. Cc1nc2n(c(=O)c1CCN1CCC(c3noc4cc(F)ccc34)CC1)CCCC2O (stereo not drawn) [Paliperidone]
4. CC[N+](C)(C)c1cccc(O)c1 [Edrophonium chloride]
5. O=C(CCCN1CCC(O)(c2ccc(Cl)cc2)CC1)c1ccc(F)cc1 [Haloperidol]
6. NC(=O)c1cnccn1 [Pyrazinamide]
7. OCCN1CCN(CCCN2c3ccccc3Sc3ccc(Cl)cc32)CC1 [Perphenazine]
8. CN(C)CCn1nnnc1SCC1=C(C(=O)O)N2C(=O)[C@@H](NC(=O)Cc3csc(N)n3)[C@H]2SC1 [Cefotiam hydrochloride]

Result:
[-1.26, -0.28, 0.19, -0.07, -0.95, -0.29, 0.72, 0.76]

For every listed record, write down its z-score of subpopulation abundance.
1. O=C1c2cccc3c2[C@H](CCC3)CN1[C@@H]1CN2CCC1CC2 [Palonosetron HCl]
2. COc1cc2c(cc1OC)C(=O)C(CC1CCN(Cc3ccccc3)CC1)C2 (stereo not drawn) [Donepezil HCl]
3. CCN1CCN(c2cc3c(cc2F)c(=O)c(C(=O)O)cn3C2CC2)CC1 [Enrofloxacin]

Result:
[0.33, 0.45, 0.07]

====

- System: Saccharomyces cerevisiae BY4741 SeMeCo community
- test: z-score of subpopulation abundance vs DMSO median, subpopulation auxotrophic for LM; higher = larger share of this subpopulation than in DMSO controls
- condition parameters: 10 µM; 24 h; SM minimal medium; subpopulation (auxotrophy): LM
Counter-ions that a name gives are not always drawn.
Assign z-score of subpopulation abundance to each entry below.
One number for each entry.

CC1=C(C(=O)OC(C)C)C(c2cccc([N+](=O)[O-])c2)C(C(=O)OC2CN(C(c3ccccc3)c3ccccc3)C2)=C(N)N1 (configuration not stated): -0.63
COc1ccccc1N1CCN(CCCNc2cc(=O)n(C)c(=O)n2C)CC1 [Urapidil HCl]: -0.25
NC(=O)c1ncn([C@@H]2O[C@H](CO)[C@@H](O)[C@H]2O)n1: -0.41
COC(=O)Nc1nc2cc([S+]([O-])c3ccccc3)ccc2[nH]1 (configuration not stated): -1.48
Oc1c(Br)cc(Br)c2cccnc12: 5.88
CO[C@H]1C[C@@H]2CC[C@@H](C)[C@@](O)(O2)C(=O)C(=O)N2CCCC[C@H]2C(=O)O[C@H]([C@H](C)C[C@@H]2CC[C@@H](O)[C@H](OC)C2)CC(=O)[C@H](C)/C=C(\C)[C@@H](O)[C@@H](OC)C(=O)[C@H](C)C[C@H](C)/C=C/C=C/C=C/1C [Rapamycin (Sirolimus)]: 5.67

Pending molecule:
Request: Given Cc1c(OCC(F)(F)F)ccnc1C[S+]([O-])c1nc2ccccc2[nH]1 (configuration not stated) , respond with its z-score of subpopulation abundance.
Result: 1.16

====

- Tested on: Saccharomyces cerevisiae BY4741 SeMeCo community
- test: z-score of subpopulation abundance vs DMSO median, subpopulation auxotrophic for LUM; higher = larger share of this subpopulation than in DMSO controls
- condition parameters: 10 µM; 24 h; SM minimal medium; subpopulation (auxotrophy): LUM
Assign z-score of subpopulation abundance to each entry below.
One number for each entry.

Cc1ccc(Nc2c(F)cccc2Cl)c(CC(=O)O)c1: -0.56
CN(C)CCN1C(=O)c2cccc3cc(N)cc(c23)C1=O [Amonafide]: 0.44
CCC[S+]([O-])c1ccc2[nH]c(NC(=O)OC)nc2c1 (stereo not drawn) [Albendazole Oxide]: -0.65
CO/N=C(\C(=O)N[C@@H]1C(=O)N2C(C(=O)O)=C(CSC(=O)c3ccco3)CS[C@H]12)c1csc(N)n1 [Ceftiofur]: -0.02
Cc1nc(NC(=O)N2CCC[C@H]2C(N)=O)sc1-c1ccnc(C(C)(C)C(F)(F)F)c1: -0.87

For every listed record, write down its z-score of subpopulation abundance.
1. C#CCN[C@@H]1CCc2ccccc21 [Rasagiline]
2. COc1ccc2cc(C(=O)O)ccc2c1
3. CCC(C)(C)C(=O)O[C@H]1C[C@@H](C)C=C2C=C[C@H](C)[C@H](CC[C@@H]3C[C@@H](O)CC(=O)O3)[C@H]21

Result:
[0.07, -0.89, 1.33]

====

- System: Saccharomyces cerevisiae BY4741 SeMeCo community
- test: z-score of subpopulation abundance vs DMSO median, subpopulation auxotrophic for L; higher = larger share of this subpopulation than in DMSO controls
- condition parameters: 10 µM; 24 h; SM minimal medium; subpopulation (auxotrophy): L
Counter-ions that a name gives are not always drawn.
Assign z-score of subpopulation abundance to each entry below.
One number for each entry.

Reference set (5 entries):
O=C(O)c1ccccc1C(=O)Nc1ccc(S(=O)(=O)Nc2nccs2)cc1 [Phthalylsulfathiazole]: -0.97
CCOc1cc(N)c(Cl)cc1C(=O)NCC1CN(Cc2ccc(F)cc2)CCO1 (stereo not drawn) [Mosapride Citrate]: 0.92
Cc1ncc([N+](=O)[O-])n1CCOC(=O)c1ccccc1 [Metronidazole Benzoate]: -0.6
O=C(O)c1cn(-c2ccc(F)cc2)c2cc(N3CCNCC3)c(F)cc2c1=O [Sarafloxacin HCl]: -0.74
CN(C)C[C@@H]1CCn2cc(c3ccccc32)C2=C(C(=O)NC2=O)c2cn(c3ccccc23)CCO1: 1.34

For every listed record, write down its z-score of subpopulation abundance.
1. O=C(Cn1ccnc1[N+](=O)[O-])NCc1ccccc1 [Benznidazole]
2. CCN(CC)C(=O)C1(c2ccccc2)CC1CN (stereo not drawn) [Milnacipran HCl]
3. CC(c1cc2ccccc2s1)N(O)C(N)=O (stereo not drawn) [Zileuton]

Result:
1. 0.22
2. 0.74
3. 0.85

====

- System: Saccharomyces cerevisiae BY4741 SeMeCo community
- test: z-score of prototroph abundance vs DMSO median; higher = larger share of this subpopulation than in DMSO controls
- condition parameters: 10 µM; 24 h; SM minimal medium; subpopulation (auxotrophy): Prototroph
Where a name gives a salt, the structure may show the parent alone.
Would you mind labelling by z-score of prototroph abundance? At or over -0.4 is true (1), under is false (0).

Cc1c(Cl)cccc1Nc1ccccc1C(=O)O: true (1)
NC[C@H]1O[C@H](O[C@H]2[C@H](O[C@@H]3O[C@H](CO)[C@@H](O)[C@H]3O)[C@@H](O)[C@H](N)C[C@@H]2N)[C@H](N)[C@@H](O)[C@@H]1O [Ribostamycin Sulfate]: true (1)
C#C[C@]1(O)CC[C@H]2[C@@H]3CCC4=CCCC[C@@H]4[C@H]3C(=C)C[C@@]21CC: true (1)
CCCCCCCCOc1ccccc1C(=O)Nc1ccc(C(=O)OCC[N+](C)(CC)CC)cc1 [Otilonium Bromide]: false (0)
CN(C)CCC=C1c2ccccc2CCc2ccccc21 [Amitriptyline HCl]: true (1)
C[N+]1(C)[C@@H]2C[C@@H](OC(=O)C(O)(c3cccs3)c3cccs3)C[C@H]1[C@@H]1O[C@@H]12 [Tiotropium Bromide hydrate]: true (1)
C[C@]12CC[C@@H]3c4ccc(OC(=O)c5ccccc5)cc4CC[C@H]3[C@@H]1CC[C@@H]2O [Estradiol Benzoate]: true (1)
CNCC[C@@H](Oc1ccccc1C)c1ccccc1 [Atomoxetine HCl]: true (1)

Request: Dear colleague, could you confirm whether CC(C)COCC(CN(Cc1ccccc1)c1ccccc1)N1CCCC1 (stereo unspecified) [Bepridil hydrochloride] has z-score of prototroph abundance at or above -0.4?
Result: false (0)

Request: Dear colleague, could you confirm whether Nc1nc2c(ncn2COC(CO)CO)c(=O)[nH]1 has z-score of prototroph abundance at or above -0.4?
Result: true (1)

Request: Dear colleague, could you confirm whether Cc1nc2n(c(=O)c1CCN1CCC(c3noc4cc(F)ccc34)CC1)CCCC2O (stereo unspecified) has z-score of prototroph abundance at or above -0.4?
Result: true (1)

Request: Dear colleague, could you confirm whether CN(C)[C@@H]1C(=O)C(C(N)=O)=C(O)[C@@]2(O)C(=O)C3=C(O)c4c(O)ccc(Cl)c4[C@@H](O)[C@H]3C[C@@H]12 [Demeclocycline HCl] has z-score of prototroph abundance at or above -0.4?
Result: true (1)

Request: Dear colleague, could you confirm whether CO/N=C(\C(=O)N[C@@H]1C(=O)N2C(C(=O)O)=C(COC(C)=O)CS[C@H]12)c1csc(N)n1 [Cefotaxime sodium] has z-score of prototroph abundance at or above -0.4?
Result: false (0)

Request: Dear colleague, could you confirm whether C1N2CN3CN1CN(C2)C3 has z-score of prototroph abundance at or above -0.4?
Result: false (0)

Request: Dear colleague, could you confirm whether CN1CCc2cc3c(cc2C(=O)Cc2ccc4c(c2C1)OCO4)OCO3 has z-score of prototroph abundance at or above -0.4?
Result: false (0)

Request: Dear colleague, could you confirm whether CC(C)[N+](C)(CCOC(=O)C1c2ccccc2Oc2ccccc21)C(C)C [Propantheline bromide] has z-score of prototroph abundance at or above -0.4?
Result: true (1)
